Biological target: UniProt:P41594
Test: IP1 accumulation

{"columns": ["molecule", "IC50 [nM]"],
 "data": [
  ["CN1CC(=O)N=C1NC(=O)Nc1cccc(Cl)c1 [fenobam]", 55],
  ["N#Cc1cc(F)cc(C(=O)Nc2cccc(Cl)c2F)c1 [VU0366248]", 115]
]}

----------
Biological target: human mGlu5 (hmGlu5) (Homo sapiens)
Test: IP1 accumulation
Assay type: cell-based

{"columns": ["molecule", "EC50 [nM]"],
 "data": [
  ["O=C(c1ccc(F)cc1)N1CCc2nc(COc3ccccc3)oc2C1 [VU0409551]", 661]
]}

----------
Target: human mGlu5 (hmGlu5) (Homo sapiens, UniProt P41594)
Sequence (P41594 21-1180 isoform P41594-2): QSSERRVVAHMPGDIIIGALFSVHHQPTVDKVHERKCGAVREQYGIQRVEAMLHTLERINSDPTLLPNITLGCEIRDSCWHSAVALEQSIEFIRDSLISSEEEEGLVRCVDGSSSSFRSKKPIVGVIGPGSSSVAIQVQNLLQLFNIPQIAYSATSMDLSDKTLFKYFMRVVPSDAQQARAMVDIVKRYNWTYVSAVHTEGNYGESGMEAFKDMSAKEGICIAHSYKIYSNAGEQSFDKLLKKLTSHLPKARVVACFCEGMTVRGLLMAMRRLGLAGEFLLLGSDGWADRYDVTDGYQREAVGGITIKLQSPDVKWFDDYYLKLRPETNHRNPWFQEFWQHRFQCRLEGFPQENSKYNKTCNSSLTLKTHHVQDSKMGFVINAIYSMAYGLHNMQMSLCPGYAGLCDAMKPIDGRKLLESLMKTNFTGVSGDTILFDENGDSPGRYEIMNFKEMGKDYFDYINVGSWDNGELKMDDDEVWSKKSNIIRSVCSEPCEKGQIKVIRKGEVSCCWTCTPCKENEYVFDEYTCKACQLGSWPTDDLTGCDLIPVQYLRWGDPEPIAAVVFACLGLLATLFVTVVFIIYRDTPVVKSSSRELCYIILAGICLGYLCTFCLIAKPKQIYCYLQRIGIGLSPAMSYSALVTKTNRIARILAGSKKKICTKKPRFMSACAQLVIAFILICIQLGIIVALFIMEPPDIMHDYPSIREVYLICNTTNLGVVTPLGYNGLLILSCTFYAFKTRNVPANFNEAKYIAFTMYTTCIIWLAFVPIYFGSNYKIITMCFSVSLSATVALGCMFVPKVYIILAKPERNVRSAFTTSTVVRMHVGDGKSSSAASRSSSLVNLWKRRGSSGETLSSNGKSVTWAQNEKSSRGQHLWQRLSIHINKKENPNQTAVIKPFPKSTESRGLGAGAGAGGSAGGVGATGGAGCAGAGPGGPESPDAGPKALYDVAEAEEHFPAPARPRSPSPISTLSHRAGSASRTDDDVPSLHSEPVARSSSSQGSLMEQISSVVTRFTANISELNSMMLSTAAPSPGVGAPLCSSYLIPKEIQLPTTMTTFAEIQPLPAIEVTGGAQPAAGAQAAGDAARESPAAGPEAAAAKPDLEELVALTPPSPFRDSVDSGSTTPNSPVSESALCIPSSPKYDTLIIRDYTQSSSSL
Assay: whole-cell saturation radioligand binding
Format: cell-based
experimental-endpoint: Kd (nM)

{"columns": ["molecule", "recorded-value"],
 "data": [
  ["COc1cncc(C#Cc2ccccn2)c1 [[3H]methoxy-PEPy]", 4.57]
]}
